Reference source for all entries: the Kinase Knowledgebase extract (Sharma et al. 2016)

Entries with their measured IC50, system PIK3CA (human):

Some solved cases for reference:
{"compound": "CCNc1nc(C)nc(N2CCOc3ccc(-c4cnc5nc(C)[nH]c5c4)cc3C2)c1C", "assayed.system": "PIK3CA (human)", "IC50": "10 to 50 nM"}
{"compound": "Cc1nc2cc(-c3ccc4c(c3)CN(c3nc(CN(C)C)nc(C)c3C)CCO4)cnc2[nH]1", "assayed.system": "PIK3CA (human)", "IC50": "10 to 50 nM"}
{"compound": "COc1ccc2c(N3CCOc4ccc(-c5cnc(Cl)c(NS(C)(=O)=O)c5)cc4C3)ncnc2c1", "assayed.system": "PIK3CA (human)", "IC50": "≤ 10 nM"}

Now look at this one.
Report IC50 from PIK3CA (human) testing of CC1(C)CCc2ncnc(N3CCOc4ccc(-c5ccc(-c6ncc[nH]6)cc5)cc4C3)c2C1
10 to 50 nM
